Just for reference, patent US20200024278A1 is where these values come from.

# Tested on: SAU 29213
# Assay Notes: MIC, broth microdilution (CLSI), substance alone or ATB combined with compound at 4 or 8 μg/mL
# Assay type: cell-based, S. aureus
# Measurement Setup: ATB MEM; compound @4 μg/ml; SAU 29213
Measured Quantity: MIC ATB combined with compound (µg/mL)
// note: answer is a bare numeric in µg/mL

> print(dat)
                            compound.string  reading
1  NCCON=C1C[C@@H](C(N)=O)N2C[C@@H]1N(OS(=O)(=O)[O-])C2=O.[Na+]    0.125

Consider the additional compound presented here.
Given NC[C@@H]1CC(=NOCC(N)=O)[C@@H]2CN1C(=O)N2OS(=O)(=O)[O-].O=C(O)C(F)(F)F.[Na+] , state its recorded MIC ATB combined with compound.
0.125

###

# Tested on: SPN 49619
# Assay Notes: MIC, broth microdilution (CLSI), substance alone or ATB combined with compound at 4 or 8 μg/mL
# Format: cell-based, S. pneumoniae
# Measurement Setup: ATB ATM; compound @4 μg/ml; SPN 49619
Measured Quantity: MIC ATB combined with compound

# annotated cases, reported MIC ATB combined with compound shown
> print(dat)
                            compound.string       reading
1  NC[C@@H]1C(c2ncco2)=C[C@@H]2CN1C(=O)N2OS(=O)(=O)[O-].O=C(O)C(F)(F)F.[Na+]     >32 µg/mL
2  NCCON=C1C[C@@H](C(N)=O)N2C[C@@H]1N(OS(=O)(=O)[O-])C2=O.[Na+]     >32 µg/mL
3  O=C1N2CC(c3ncco3)=C[C@H](C2)N1OS(=O)(=O)[O-].[Na+]  <0.031 µg/mL

Query molecule follows.
Sample NC[C@@H]1CC(=NOCC(N)=O)[C@@H]2CN1C(=O)N2OS(=O)(=O)[O-].O=C(O)C(F)(F)F.[Na+] — what was its MIC ATB combined with compound?
>32 µg/mL

###

# Tested on: PAE 105250
# Assay Notes: MIC, broth microdilution (CLSI), substance alone or ATB combined with compound at 4 or 8 μg/mL
# Type: cell-based, P. aeruginosa
# Measurement Setup: PAE 105250; with Example 16 at 4 μg/ml
Measured Quantity: MIC ATB combined with Example 16 @4 μg/ml (µg/mL)
Give your result in µg/mL as a bare value.

> print(dat)
                                   compound  unit.descriptor  reading
1  C[C@@H](O)[C@H]1C(=O)N2C(C(=O)O)=C(SCCN=CN)C[C@H]12 [IMI]            µg/mL        2

// switching to the query compound
Return reported MIC ATB combined with Example 16 @4 μg/ml; argument: CN(C)c1cc(NC(=O)CNC(C)(C)C)c(O)c2c1C[C@H]1C[C@H]3[C@H](N(C)C)C(O)=C(C(N)=O)C(=O)[C@@]3(O)C(O)=C1C2=O [TGC]
8

###

# Test system: PAE 105250
# Assay Notes: MIC, broth microdilution (CLSI), substance alone or ATB combined with compound at 4 or 8 μg/mL
# Format: cell-based, P. aeruginosa
# Measurement Setup: ATB ATM; PAE 105250; Example @8 μg/ml
Measured Quantity: MIC ATB combined with Example (mg/L)
Just the number please, in mg/L, no unit attached.

Reference set (3 entries):
> print(dat)
                                   molecule              measured.quantity  reading
1  O=C1N2CC(n3cncn3)=CC(C2)N1OS(=O)(=O)[O-].[Na+] (centres unmarked)  MIC ATB combined with Example        8
2  O=C1N2CC(n3cccn3)=CC(C2)N1OS(=O)(=O)[O-].[Na+] (centres unmarked)  MIC ATB combined with Example       16
3  O=C1N2CC(n3cccn3)=CC(C2)N1OC(F)(F)C(=O)[O-].[Li+] (centres unmarked)  MIC ATB combined with Example        8

Now look at this one.
Please look up its MIC ATB combined with Example: O=C1N2CC(n3ccnn3)=CC(C2)N1OS(=O)(=O)[O-].[Na+] (centres unmarked)
8
